- System: CD8+ T cells
- measurement_notes: IFNγ ELISPOT, DENV2 S221-infected Ifnar-/- HLA-B*0702 transgenic mice
- Assay type: cell-based, mouse
- condition_context: HLA-B*0702 mice, 7 days after 2×10^4 FFU DENV2 S221
Please use TRUE whenever SFC/10^6 CD8+ T cells, S221 is not below 50 SFC/10^6 CD8+ T cells, and FALSE whenever it is.

chain_sequence: TPRESMLLAL [FSS/MR-NS2A89-99]
answer_label: TRUE

Does the sequence APTQGSASSL [FSS/MR-NS561-70] have recorded SFC/10^6 CD8+ T cells, S221 that is 50 SFC/10^6 CD8+ T cells or more?
FALSE

Does the sequence VPTGRTTVV (VPTGRTTW) [FSS/MR-NS5539-546] have recorded SFC/10^6 CD8+ T cells, S221 that is 50 SFC/10^6 CD8+ T cells or more?
TRUE

Does the sequence GPMPVTHASA [FSS/MR-NS3427-436] have recorded SFC/10^6 CD8+ T cells, S221 that is 50 SFC/10^6 CD8+ T cells or more?
TRUE

Cited source: patent US11806393B2
